Sequence of the target: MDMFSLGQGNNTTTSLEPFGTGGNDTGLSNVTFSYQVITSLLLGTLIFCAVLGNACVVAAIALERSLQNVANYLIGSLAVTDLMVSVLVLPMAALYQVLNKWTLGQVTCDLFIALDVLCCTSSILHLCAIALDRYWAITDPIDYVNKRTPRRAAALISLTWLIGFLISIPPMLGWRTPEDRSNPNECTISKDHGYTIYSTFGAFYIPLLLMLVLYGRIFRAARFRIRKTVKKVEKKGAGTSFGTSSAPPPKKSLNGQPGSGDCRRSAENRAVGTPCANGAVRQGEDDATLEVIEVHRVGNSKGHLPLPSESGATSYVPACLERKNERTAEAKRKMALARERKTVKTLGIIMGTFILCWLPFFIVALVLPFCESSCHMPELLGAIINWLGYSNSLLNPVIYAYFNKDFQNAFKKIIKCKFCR
pKi: −log10 of the molar value.

molSmiles	pKi
Cc1ccc(N2CCN(CC[C@H]3NC(=O)c4ccccc43)CC2)cc1C	6.28
Cc1ccc(N2CCN(CC[C@@H]3NC(=O)c4ccccc43)CC2)cc1C	6.00
